System: Mus musculus
Experiment: Toxicity in mouse S180 cells allografted ICR mouse assessed as brain weight at 8.9 mg/kg, ip qd for 7 days relative to control
Format: organism-based, CCRF S-180
Parameters: dose 8.9 mg/kg, route intraperitoneal
Details: in vivo, 168 h
Residues, ends and D or L forms follow the SMILES beside them. *: point of attachment. OBn = c1ccc(CO*)cc1
measureName: Activity

- O=C(N[C@@H](Cc1c[nH]c2ccccc12)C(=O)N[C@@H](Cc1c[nH]c2ccccc12)C(=O)OCc1ccccc1)[C@@H]1CCCN1 (H-Pro-Trp-Trp-OBn): Non-toxic
- N[C@@H](CO)C(=O)N[C@@H](Cc1c[nH]c2ccccc12)C(=O)N[C@@H](Cc1c[nH]c2ccccc12)C(=O)OCc1ccccc1 (H-Ser-Trp-Trp-OBn): Non-toxic
- NC(=O)CC[C@H](N)C(=O)N[C@@H](Cc1c[nH]c2ccccc12)C(=O)N[C@@H](Cc1c[nH]c2ccccc12)C(=O)OCc1ccccc1 (H-Gln-Trp-Trp-OBn): Non-toxic
